The values you see were collected from paper PMC6072100.

Provide the recorded CC50 at 24 h for the entries that follow.
# experiment_notes: Cytotoxicity assay with HepG2 (alamarBlue)
# Format: cell-based, human
# cond: human, HepG2 cells, ED50 HepG2
Square brackets hold non-standard residues; d marks the D form. Peptide text beside a SMILES is read from it. Gly(N-(CH2)6NH2) = NCCCCCCNCC(=O)O; Gly(N-2-aminoethyl) = NCCNCC(=O)O; Nphe = O=C(O)CNCc1ccccc1; Nlys = NCCCCNCC(=O)O
Report only the number, with the unit µM understood.

Q: Tell me its CC50 at 24 h given C[C@@H](c1ccccc1)N(CC(N)=O)C(=O)CN(C(=O)CN(CCCCN)C(=O)CN(Cc1ccc(F)cc1)C(=O)CN(Cc1ccc(F)cc1)C(=O)CN(CCCCN)C(=O)CN(C(=O)CN(C(=O)CN(CCCCN)C(=O)CN(Cc1ccc(F)cc1)C(=O)CN(Cc1ccc(F)cc1)C(=O)CNCCCCN)[C@@H](C)c1ccccc1)[C@@H](C)c1ccccc1)[C@@H](C)c1ccccc1 [Peptoid 28, [(NLysNpfbNpfb)(NLysNspeNspe)]2] as the entry.
A: 55

Q: Tell me its CC50 at 24 h given NCCNCC(=O)N(CC(=O)N(CC(=O)N(CCN)CC(=O)N(CC(=O)N(CC(=O)N(CCN)CC(=O)N(CC(=O)N(CC(N)=O)Cc1ccccc1)Cc1ccccc1)Cc1ccccc1)Cc1ccccc1)Cc1ccccc1)Cc1ccccc1 [Peptoid 8, (NaeNpheNphe)3] (H-[Gly(N-2-aminoethyl)][Nphe][Nphe][Gly(N-2-aminoethyl)][Nphe][Nphe][Gly(N-2-aminoethyl)][Nphe][Nphe]-NH2) as the entry.
A: 100

Q: Tell me its CC50 at 24 h given NCCCCNCC(=O)N(CC(=O)N(CC(=O)N(CCCCN)CC(=O)N(CC(=O)N(CC(=O)N(CCCCN)CC(=O)N(CC(=O)N(CC(=O)N(CCCCN)CC(=O)N(CC(=O)N(CC(N)=O)Cc1ccccc1)Cc1ccccc1)Cc1ccccc1)Cc1ccccc1)Cc1ccccc1)Cc1ccccc1)Cc1ccccc1)Cc1ccccc1 [Peptoid 4, (NLysNpheNphe)4] (H-[Nlys][Nphe][Nphe][Nlys][Nphe][Nphe][Nlys][Nphe][Nphe][Nlys][Nphe][Nphe]-NH2) as the entry.
A: 100

Q: Tell me its CC50 at 24 h given NCCCCCCNCC(=O)N(CC(=O)N(CC(=O)N(CCCCCCN)CC(=O)N(CC(=O)N(CC(=O)N(CCCCCCN)CC(=O)N(CC(=O)N(CC(=O)N(CCCCCCN)CC(=O)N(CC(=O)N(CC(N)=O)Cc1ccccc1)Cc1ccccc1)Cc1ccccc1)Cc1ccccc1)Cc1ccccc1)Cc1ccccc1)Cc1ccccc1)Cc1ccccc1 [Peptoid 1, (NahNpheNphe)4] (H-[Gly(N-(CH2)6NH2)][Nphe][Nphe][Gly(N-(CH2)6NH2)][Nphe][Nphe][Gly(N-(CH2)6NH2)][Nphe][Nphe][Gly(N-(CH2)6NH2)][Nphe][Nphe]-NH2) as the entry.
A: 100

Q: Tell me its CC50 at 24 h given NCCNCC(=O)N(CC(=O)N(CC(=O)N(CCN)CC(=O)N(CC(=O)N(CC(N)=O)Cc1ccccc1)Cc1ccccc1)Cc1ccccc1)Cc1ccccc1 [Peptoid 9, (NaeNpheNphe)2] (H-[Gly(N-2-aminoethyl)][Nphe][Nphe][Gly(N-2-aminoethyl)][Nphe][Nphe]-NH2) as the entry.
A: 100

Q: Tell me its CC50 at 24 h given NCCCCCCNCC(=O)N(CC(=O)N(CC(=O)N(CCCCCCN)CC(=O)N(CC(=O)N(CC(=O)N(CCCCCCN)CC(=O)N(CC(=O)N(CC(N)=O)Cc1ccccc1)Cc1ccccc1)Cc1ccccc1)Cc1ccccc1)Cc1ccccc1)Cc1ccccc1 [Peptoid 2, (NahNpheNphe)3] (H-[Gly(N-(CH2)6NH2)][Nphe][Nphe][Gly(N-(CH2)6NH2)][Nphe][Nphe][Gly(N-(CH2)6NH2)][Nphe][Nphe]-NH2) as the entry.
A: 100
